# assay-protocol: Immunosuppressive activity in mouse concanavalin A-stimulated peripheral blood leukocyte assessed as inhibition of leukocyte proliferation by [3H]thymidine incorporation assay
# Format: functional
pEC50: −log10 of the molar value.
measurement-name: pEC50

Check out these entries, answers already filled in.
molecule: CCOCCOCCNC(=O)CC(=O)N[C@H]1CCOC1=O
value-reported: < 3.00
//
molecule: CCCCCCCCCSCC(=O)N[C@H]1CCOC1=O
value-reported: < 3.00

Would you kindly look at the next entry?
Input: Consider the compound shown here: `CCCCCCCCCC(=O)CC(=O)N[C@H]1CC(=O)NC1=O` What is its recorded pEC50?
Output: < 3.00

Hello, the source for this data is ChEMBL document CHEMBL1773053, in case you need it.
